TGI by entry:
Tested on: UACC-257 melanoma
Protocol Text: NCI tumour cell line growth inhibition, 48 h

Compound	TGI
CCN(CC)CCCC(C)Nc1ccnc2ccc3nn(C)nc3c12 (stereo not given)	> 100 µM
Cc1cc2cn3c4ccc(O)cc4[nH]c(=O)c3c2cc1C	1.31 µM
CCCCOC(=O)NC(Nc1cccc(C(F)(F)F)c1)(C(F)(F)F)C(F)(F)F	> 100 µM
CCN(CC)CCNC(=O)c1ccc(I)cc1	> 100 µM

Then there is this compound:
State its TGI on UACC-257 melanoma: Cc1ccccc1C(=O)Oc1ccc(O)cc1 > 100 µM

---

System: NCI/ADR-RES ovarian
Protocol Text: NCI tumour cell line growth inhibition, 48 h
GI50 by entry:

Below: 3 compounds and their reported GI50.
Smiles Structure	Target Under Test	Assay Result
C[C@@H]1Cc2c([nH]c3ccccc23)[C@@H](c2c(F)cc(NC3CN(CCCF)C3)cc2F)N1CC(F)(F)CO	NCI/ADR-RES ovarian	4.1 µM
COC1=CC(=O)C(OC)=C(OC)C1=O	NCI/ADR-RES ovarian	17.5 µM
O=C(Nc1ccccc1O)c1ccc(CNc2ccnc(C(F)(F)F)c2)cc1	NCI/ADR-RES ovarian	2.41 µM

State its GI50 on NCI/ADR-RES ovarian: N#CC(C#N)N=Nc1ccc(Br)cc1 4.73 µM

State its GI50 on NCI/ADR-RES ovarian: COc1cc(Nc2ncc(F)c(Nc3ccc4c(n3)NC(=O)C(C)(C)O4)n2)cc(OC)c1OC > 10 µM

---

GI50 by entry:
Test system: MALME-3M melanoma
Protocol Text: NCI tumour cell line growth inhibition, 48 h

Below: 5 molecules and their reported GI50.
Molecule	Recorded Metric	Assay Result
Cc1cc(O)c(C2=NN(c3ccc(S(N)(=O)=O)cc3)C(c3ccc(N(C)C)cc3)C2)c(C)c1Cl (stereo not drawn)	GI50	14.8 µM
CC(C)CC(=O)Nc1n[nH]c2c1CN(C(=O)C1CCN(C)CC1)C2(C)C	GI50	6.95 µM
COC(=O)c1c(O)c([N+](=O)[O-])cc2c1c1c(n2Cc2ccccc2)C(=O)c2ccccc2C1=O	GI50	23.4 µM
CC(=O)[O-].[Mn+3].[O-]c1ccccc1C=NCCN=Cc1ccccc1[O-]	GI50	> 100 µM
O=c1c(O)cccc2cc(O)c(O)c(O)c12	GI50	4.99 µM

State its GI50 on MALME-3M melanoma: CN(C)C/C=C/C(=O)Nc1cc2c(Nc3ccc(F)c(Cl)c3F)ncnc2cc1OCCOC(F)F 1.27 µM

State its GI50 on MALME-3M melanoma: COc1cc2c3c(n(CCCNCCCNCCCNCCCN)c(=O)c2cc1OC)-c1cc2c(cc1C3=O)OCO2 0.318 µM

State its GI50 on MALME-3M melanoma: CCn1cc(-c2ccnc3[nH]ccc23)c(-c2cccc(NC(=O)Nc3ccc(OCc4ccccc4)cc3)c2)n1 > 22.6 µM

State its GI50 on MALME-3M melanoma: O=C(Nc1ccccc1O)c1ccc(CNc2ccnc(C(F)(F)F)c2)cc1 1.03 µM

---

GI50 by entry:
Tested on: UACC-257 melanoma
Protocol Text: NCI tumour cell line growth inhibition, 48 h

Molecule	GI50
CC(=O)N1c2ccccc2NC2=C(C(=O)N(Cc3ccccc3)C2(C)C)C1c1ccco1 (stereo not drawn)	> 25 µM
COc1ccc(/C=C2\CC(C)CC3C2=NN(C(C)=O)C3c2ccc(OC)cc2)cc1 (stereo not drawn)	19.8 µM

Then there is this molecule:
Given COc1ccc(-c2nc(C(=O)c3ccccc3)n(CC(=O)c3ccccc3)c2-c2ccc(OC)cc2)cc1 , state its recorded GI50. > 100 µM

---

TGI by entry:
Tested on: NCI-H226 lung
Protocol Text: NCI tumour cell line growth inhibition, 48 h

Given O=C(CCCNc1nc(-c2ccccc2)cs1)c1cccs1 , state its recorded TGI. > 100 µM

Given CCN1C[C@]2(C)CC[C@H](OC)C34C1C([C@H](OC(C)=O)[C@@H]32)[C@@]1(OC)C[C@H](OC)[C@H]2C[C@@H]4[C@@H]1[C@H]2O , state its recorded TGI. > 100 µM

Given OC(COc1ccc(F)cc1)Cn1cnc2c(Cl)ncnc21 (stereo not drawn) , state its recorded TGI. > 100 µM

---

System: SF-268 CNS
Protocol Text: NCI tumour cell line growth inhibition, 48 h; in the data active = GI50 below about 0.43 µM; inactive = the rest
Write down the outcome that applies. Available outcomes: active, inactive

Study these solved cases before continuing.
Molecule	Discrete Label
Cc1nccc2c3ccc(OCc4cn(-c5ccc(Cl)cc5)nn4)cc3n(CCCc3ccccc3)c12	inactive
O=C(Nc1ccccc1O)c1ccc(CNc2ccnc(C(F)(F)F)c2)cc1	inactive
COC1C(O)C(C)OC(OC2C(Oc3cccc4c(O)c5c(=O)oc6ccc(C)c7c(=O)oc(c34)c5c67)OC(C)C(O)C2O)C1O (configuration not stated)	inactive
CN(C)c1ncc(-c2ccc(C(F)(F)F)cc2)c(NC2CCCCCC2)n1	inactive
CN1CCN(c2cc(C(=O)Nc3cc4cc(-c5cnn(C)c5)ccc4cn3)ccn2)CC1	active

In this assay, the call recorded for N#CSc1c[nH]c2ccc(/C=C/C(=O)/C=C(/C=C/c3ccc4[nH]cc(SC#N)c4c3)OB(F)F)cc12 was what? inactive

In this assay, the call recorded for CC(C)CC(=O)Nc1n[nH]c2c1CN(C(=O)C1CCN(C)CC1)C2(C)C was what? inactive

---

Test system: NCI-H226 lung
Protocol Text: NCI tumour cell line growth inhibition, 48 h
Recorded Metric: TGI

Below: 3 molecules and their reported TGI.
Molecule	Target Under Test	TGI
Cc1nc(C(N)=S)sc1C(/C=C/c1ccc(Cl)c(Cl)c1)=N/NC(C)(C)C	NCI-H226 lung	> 100 µM
O=C(O)CNc1ccc(C(=O)O)cc1	NCI-H226 lung	> 100 µM
CCOC(=O)c1c(C)cc(=O)n2c1[nH]c1ccccc12	NCI-H226 lung	> 100 µM

Given CCN(CC)CCCC(C)Nc1nc(C)cc(Nc2ccc3nc(C)cc(N)c3c2)n1 (centres undefined) , state its recorded TGI. > 100 µM

---

TGI by entry:
Test system: SK-MEL-28 melanoma
Protocol Text: NCI tumour cell line growth inhibition, 48 h

Below: 10 compounds and their reported TGI.
Compound	TGI
CC1(C)CC23CC(C)(C)c4cccc(c42)OCc2ccc4ccc5ccc(nc5c4n2)COc2cccc1c23	> 50 µM
CCNc1nnc(-c2nsc3ccccc23)s1	> 100 µM
O=[N+]([O-])c1ccccc1NC1c2ccccc2Oc2ccccc21	> 100 µM
COC(=O)CCC(=O)Nc1cc(Cl)ccc1Cl	> 100 µM
O=C1c2ccccc2NC1(c1ccccc1)c1c(-c2ccccc2)[nH]c2ccccc12 (configuration not stated)	> 100 µM
O=C(O)CS	> 100 µM
O=C(Nc1cc2c(=O)oc3ccccc3c2oc1=O)c1cccnc1	> 100 µM
O=C(Cc1csc(-c2nc(CC(=O)NNc3ccccc3)cs2)n1)NNc1ccccc1	> 100 µM
Cc1nc(C(N)=S)sc1C(/C=C/c1ccc(Cl)c(Cl)c1)=N/NC(C)(C)C	> 100 µM
Cn1c(-c2cccs2)cc(-c2cccs2)c1-c1ccco1	> 100 µM

Given COc1ccc(N/N=C(\CCN(C)C)c2ccccc2)cc1 , state its recorded TGI. 7.83 µM

---

System: HS 578T breast
Protocol Text: NCI tumour cell line growth inhibition, 48 h; in the data active means GI50 below about 0.43 µM; inactive means the rest
Write down the outcome that applies. Available outcomes: active, inactive

Compound	Discrete Label
N#CC(C#N)N=Nc1ccc(Br)cc1	inactive
Nc1nc2cc3ccc(C4CC(O)C(CO)O4)cc3cc2c(=O)[nH]1 (stereo not drawn)	inactive
COC(=O)Nc1nc2ccc(C(=O)c3ccc(N(C)C4COC4)cc3)cc2[nH]1	active
C=C(C)C1CC/C(C)=C/CC[C@]2(C)O[C@H]2CC/C(COC(C)=O)=C\[C@@H]1O (stereo partly drawn)	inactive
S=C(Nc1ccc(Cl)cc1)Nc1ccc(-c2nc3ccccc3o2)cc1	inactive
CN(C)c1ncc(-c2ccc(C(F)(F)F)cc2)c(NC2CCCCCC2)n1	inactive

In this assay, the call recorded for O=C(Nc1ccccc1O)c1ccc(CNc2ccnc(C(F)(F)F)c2)cc1 was what? inactive

In this assay, the call recorded for O=[N+]([O-])c1ccccc1NC1c2ccccc2Oc2ccccc21 was what? inactive

---

System: PC-3 prostate
Protocol Text: NCI tumour cell line growth inhibition, 48 h
TGI by entry:
Give the value, in units of µM, as a plain number.

Below: 2 molecules and their reported TGI.
Molecule	Units Symbol	TGI
Cc1ccc2c(n1)C(=O)C=CC2=O	µM	31.9
C[C@]12Cc3cnn(-c4ccc(F)cc4)c3NC1CC[C@@H]1C2CC[C@@]2(C)C1CC[C@@H]2O (some centres not stated)	µM	21.9

Then there is this molecule:
Given CCN(CC)c1ccc2c(c1)Oc1nc(N)c(C#N)c(N)c1C2Sc1ccc(OC)cc1 (configuration not stated) , state its recorded TGI. 3.38

---

Tested on: ACHN renal
Protocol Text: NCI tumour cell line growth inhibition, 48 h
TGI by entry:

Below: 2 compounds and their reported TGI.
Compound	TGI
CN1CCCCC(C#N)(c2ccccc2)CC1 (stereo not drawn)	> 100 µM
NCCN.NCCN.O=C[O-].O=C[O-].[Co+3].[O-][Cl+3]([O-])([O-])[O-]	> 100 µM

Then there is this compound:
Given Cc1nc(-c2ccccc2)cc2c1c(=O)oc1ccccc12 , state its recorded TGI. > 100 µM
